# system.tested: Acetylcholinesterase (Homo sapiens, UniProt P22303)
# Sequence (P22303 whole entry): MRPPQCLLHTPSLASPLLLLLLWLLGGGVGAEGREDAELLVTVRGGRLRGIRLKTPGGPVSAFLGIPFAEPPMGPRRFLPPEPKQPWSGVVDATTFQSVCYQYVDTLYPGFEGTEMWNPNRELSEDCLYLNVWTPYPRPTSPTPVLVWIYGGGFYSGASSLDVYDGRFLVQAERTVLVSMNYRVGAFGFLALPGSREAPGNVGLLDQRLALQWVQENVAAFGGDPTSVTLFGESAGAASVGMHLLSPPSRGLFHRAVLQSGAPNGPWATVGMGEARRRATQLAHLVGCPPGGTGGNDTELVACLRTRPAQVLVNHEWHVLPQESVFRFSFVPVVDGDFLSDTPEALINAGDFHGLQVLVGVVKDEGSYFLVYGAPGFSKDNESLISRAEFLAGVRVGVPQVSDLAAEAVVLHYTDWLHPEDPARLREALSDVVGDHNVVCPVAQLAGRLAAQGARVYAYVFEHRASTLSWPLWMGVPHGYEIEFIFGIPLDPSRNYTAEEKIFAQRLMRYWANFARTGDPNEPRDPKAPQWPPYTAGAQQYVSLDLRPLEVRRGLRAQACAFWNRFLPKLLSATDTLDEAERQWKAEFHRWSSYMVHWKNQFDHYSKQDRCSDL
# experiment: Inhibition of human AChE assessed as inhibitor dissociation constant for enzyme-substrate-inhibitor complex pre-incubated for 6 mins before ATCI substrate addition and measured after 12 mins by DTNB reagent dependent Ellman's method based Lineweaver-Burk plot analysis
value.type: pKi
When answering, recall that pKi equals minus log10 of the concentration in mol/L, and write that number alone.

Give the reported pKi for this molecule. O=C(CNCc1cc(F)cc(F)c1)Nc1ccc2nc3n(c(=O)c2c1)CCC3
7.80

====

# system.tested: UniProtKB P22303
# experiment: Inhibition of human AChE assessed as inhibitor dissociation constant for enzyme-inhibitor complex pre-incubated for 6 mins before ATCI substrate addition and measured after 12 mins by DTNB reagent dependent Ellman's method based Lineweaver-Burk plot analysis
value.type: pKi
When answering, recall that pKi equals minus log10 of the concentration in mol/L, and write that number alone.

Fill in: pKi on UniProtKB P22303, entry O=C(CNCc1cc(F)cc(F)c1)Nc1ccc2nc3n(c(=O)c2c1)CCC3
8.01
